target: T1, human CD47 (human, UniProt Q08722 19-139); experiment: SPR as in Example 1
T1 construct: extracellular domain; also called CD47 ECD
T1 sequence (Q08722 19-139 limits assumed): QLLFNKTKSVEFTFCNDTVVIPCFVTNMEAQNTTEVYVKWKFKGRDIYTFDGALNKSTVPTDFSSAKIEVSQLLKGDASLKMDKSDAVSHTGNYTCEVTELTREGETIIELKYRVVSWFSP
observed.property: pKd
The quantity pKd is defined as the negative base-10 logarithm of the molar concentration.

Consider SIRP-α D1 variant fused to Fc variant, SEQ ID NO: 101 (Fc fusion) EEELQVIQPDKSVLVAAGETATLRCTITSLFPVGPIQWFRGAGPGRELIYNQREGPFPRVTTVSDLTKRNNMDFSIRIGAITPADAGTYYCVKFRKGSPDDVEFKSGAGTELSVRAKPSDKTHTCPPCPAPEAAGAPSVFLFPPKPKDTLMISRTPEVTCVVVDVSHEDPEVKFNWYVDGVEVHNAKTKPREEQYASTYRVVSVLTVLHQDWLNGKEYKCKVSNKALPAPIEKTISKAKGQPREPQVYTLPPSREEMTKNQVSLTCLVKGFYPSDIAVEWESNGQPENNYKTTPPVLDSDGSFFLYSKLTVDKSRWQQGNVFSCSVMHEALHNHYTQKSLSLSPGK . Its measured pKd is 9.05

***
Consider SIRP-α D1 variant fused to Fc variant, SEQ ID NO: 109 (Fc fusion) EEELQVIQPDKSVLVAAGETATLRCTATSLFPVGPIQWFRGAGPGRELIYNQREGPFPRVTTVSDLTKRNNMDFSIRIGAITPADAGTYYCVKFRKGSPDDVEFKSGAGTELSVRAKPSVECPPCPAPPVAGPSVFLFPPKPKDTLMISRTPEVTCVVVDVSHEDPEVQFNWYVDGVEVHNAKTKPREEQFASTFRVVSVLTVVHQDWLNGKEYKCKVSNKGLPSSIEKTISKTKGQPREPQVYTLPPSREEMTKNQVSLTCLVKGFYPSDIAVEWESNGQPENNYKTTPPMLDSDGSFFLYSKLTVDKSRWQQGNVFSCSVMHEALHNHYTQKSLSLSPGK . Its measured pKd is 8.67
